target: Lys-gingipain (KGP) (Porphyromonas gingivalis, UniProt B2RLK2); details: compound concentration 10^−9 mol/l
Quick list: Enzyme inhibitory activity (%) KGP per entry.

>  <smi>
CN(C)NC(=O)CC[C@H](NC(=O)OCc1ccccc1)C(=O)N[C@@H](CCCCN)C(=O)C(=O)NCc1ccccc1.Cl.Cl

>  <Enzyme inhibitory activity (%) KGP>
98.2

$$$$
>  <smi>
Cl.NCCCC[C@H](NC(=O)[C@H](CCC(N)=O)NC(=O)OCc1ccccc1)C(=O)C(=O)NCc1ccccc1

>  <Enzyme inhibitory activity (%) KGP>
93.8

$$$$
>  <smi>
CN(C)C(=O)[C@H](CCC(=O)O)NC(=O)C(=O)[C@H](CCCCN)NC(=O)[C@H](CCC(=O)O)NC(=O)OCc1ccccc1.Cl

>  <Enzyme inhibitory activity (%) KGP>
38.4

$$$$
>  <smi>
CN(C)C(=O)[C@H](CC(N)=O)NC(=O)C(=O)[C@H](CCCCN)NC(=O)[C@H](CCC(=O)O)NC(=O)OCc1ccccc1.Cl

>  <Enzyme inhibitory activity (%) KGP>
59.6

$$$$
>  <smi>
Cl.Cl.NCCCC[C@H](NC(=O)[C@H](CCC(=O)NCCN)NC(=O)OCc1ccccc1)C(=O)C(=O)NCc1ccccc1

>  <Enzyme inhibitory activity (%) KGP>
99.9

$$$$
>  <smi>
CCCNC(=O)C(=O)[C@H](CCCCN)NC(=O)[C@H](CCC(=O)O)NC(=O)OCc1ccccc1.Cl

>  <Enzyme inhibitory activity (%) KGP>
71.9

$$$$

---

molecular target: Lys-gingipain (KGP) (Porphyromonas gingivalis); details: compound concentration 10^−9 mol/l
We begin with a simple list: items and their reported Enzyme inhibitory activity (%) KGP.

>  <smi>
CN(C)C(=O)[C@H](Cc1ccccc1)NC(=O)C(=O)[C@H](CCCCN)NC(=O)[C@H](CCC(=O)O)NC(=O)OCc1ccccc1.Cl

>  <measure_unit>
%

>  <Enzyme inhibitory activity (%) KGP>
40.6

$$$$
>  <smi>
CC(C)C[C@H](NC(=O)C(=O)[C@H](CCCCN)NC(=O)[C@H](CCC(=O)O)NC(=O)OCc1ccccc1)C(=O)N(C)C.Cl

>  <measure_unit>
%

>  <Enzyme inhibitory activity (%) KGP>
50.6

$$$$
>  <smi>
CN(NC(=O)CC[C@H](NC(=O)OCc1ccccc1)C(=O)N[C@@H](CCCCN)C(=O)C(=O)NCc1ccccc1)c1ccccc1.Cl.Cl

>  <measure_unit>
%

>  <Enzyme inhibitory activity (%) KGP>
99.0

$$$$
>  <smi>
CN(C)C(=O)CC[C@H](NC(=O)OCc1ccccc1)C(=O)N[C@@H](CCCCN)C(=O)C(=O)NCc1ccccc1.Cl

>  <measure_unit>
%

>  <Enzyme inhibitory activity (%) KGP>
93.7

$$$$
>  <smi>
Cl.NCCCC[C@H](NC(=O)[C@H](CCC(=O)O)NC(=O)OCc1ccccc1)C(=O)C(=O)NCc1ccccc1

>  <measure_unit>
%

>  <Enzyme inhibitory activity (%) KGP>
81.8

$$$$

---

Items are presented alongside their recorded melting point.

>  <molecule>
CC(C)(C)OC(=O)NCCCC[C@H](NC(=O)[C@H](CCC(=O)NCCNC(=O)OC(C)(C)C)NC(=O)OCc1ccccc1)C(=O)C(=O)NCc1ccccc1

>  <melting point>
157 to 159 °C

$$$$
>  <molecule>
CN(NC(=O)CC[C@H](NC(=O)OCc1ccccc1)C(=O)N[C@@H](CCCCNC(=O)OC(C)(C)C)C(=O)C(=O)NCc1ccccc1)c1ccccc1

>  <melting point>
147 to 150 °C

$$$$
>  <molecule>
CN(NC(=O)CC[C@H](NC(=O)OCc1ccccc1)C(=O)N[C@@H](CCCCNC(=O)OC(C)(C)C)C(O)C(=O)NCc1ccccc1)c1ccccc1 (stereo partly drawn)

>  <melting point>
170 to 173 °C

$$$$
>  <molecule>
CNC(=O)CC[C@H](NC(=O)OCc1ccccc1)C(=O)N[C@@H](CCCCNC(=O)OC(C)(C)C)C(=O)C(=O)NCc1ccccc1

>  <melting point>
189 to 192 °C

$$$$
>  <molecule>
CN(C)C(=O)[C@H](CCC(=O)OC(C)(C)C)NC(=O)C(=O)[C@H](CCCCNC(=O)OC(C)(C)C)NC(=O)[C@H](CCC(=O)OC(C)(C)C)NC(=O)OCc1ccccc1

>  <melting point>
127 to 130 °C

$$$$
>  <molecule>
CC(C)(C)OC(=O)CC[C@H](NC(=O)OCc1ccccc1)C(=O)N[C@@H](CCCCNC(=O)OC(C)(C)C)C(O)C(=O)NCCc1ccccc1 (stereo partly drawn)

>  <melting point>
82 to 85 °C

$$$$
